Test description: qHTS Assay for Inhibitors of Hepatitis C Virus (HCV)
Run conditions: Huh7.5.1 HCVcc-Cre infection, luciferase reporter, 44 h; series mostly up to 41.8 µM
The whole screen tested about 340,000 compounds, of which about 12,000 (3.5%) were called active. About 18% were inconclusive and are not listed. Calls follow the shape of the dose curve; as a rule, active = well fitted inhibition curve with a large enough effect; inconclusive = small, poorly fitted or top-dose-only effect, or another doubt; inactive = no such curve, though single readings can be large or run the other way. The list comes from a sample in which actives are over-represented; it also holds close analogues and randomly drawn compounds.
Labels: Y for active, N for inactive

Molecule	Group
CC(C)OC(=O)c1ccc(NCc2cc(O)ccc2O)cc1Cl	Y
C#CCNc1ccc(C(=O)OCC)cc1	N
CC(=O)OC1CCC2(C)C(=CCC3C4CC(=O)N(O)C(=O)C4(C)CCC32)C1 (stereo not given)	N
CC(CN1CCCCC1)OC(=O)c1ccccc1Cl (stereo not given)	N
O=C1CCC/C=C\C[C@@H](CC(=O)N(CCO)Cc2ccccc2)C(=O)NCCO1	N
COc1ccc(OC)c(Nc2nc3ccccc3n3cnnc23)c1	Y
CC(=O)c1ccc(NC(=O)C(C)OC(=O)c2ccc(NS(=O)(=O)c3ccc4[nH]c(=O)[nH]c4c3)cc2)cc1 (stereo not given)	N
Cn1c(N)c(C(=O)COC(=O)/C=C/c2cccc(C(F)(F)F)c2)c(=O)n(C)c1=O	N
O=C(Cc1ccc(Cl)cc1)c1ccccc1	N
O=C(COC(=O)CCCN1C(=O)c2cccc3cccc(c23)C1=O)NC1CCS(=O)(=O)C1 (stereo not given)	N
CC1(C)O[C@@H]2[C@H](O1)[C@@H](COS(=O)(=O)O)O[C@H]2n1cnc2c(=O)[nH]cnc21	N
CC(C)[C@@H](C(=O)OCC(=O)c1ccc2c(c1)NC(=O)CO2)N1C(=O)c2ccccc2C1=O	N
COc1ccc(Cl)cc1C(=O)NCC#N	N
COc1ccc(Sc2nc(-c3ccccc3)ncc2OC)cc1	N
Cc1occc1C(=O)Nc1cccc(S(=O)(=O)N2CCOCC2)c1	N
CCN(CC)CCNC(=O)c1ccc(NS(=O)(=O)c2ccc3c(c2)OCCO3)cc1	N
COc1cnc(-c2ccccn2)nc1Oc1ccc(C(C)(C)C)cc1	Y
O=C(COC(=O)c1ccco1)Nc1ccc(Cl)cn1	N
COc1cccc(NC(=O)C2C(c3ccccc3)C2(Cl)Cl)c1 (stereo not given)	Y
COc1ccc(C)cc1NC(=O)c1cc(-c2ccccc2)nc2c1cnn2C(C)C	N
CCCN(C(=O)c1nc2nccc(C)n2n1)c1c(N)n(Cc2ccccc2)c(=O)[nH]c1=O	N
Cc1c(C(=O)Nc2cccc(S(=O)(=O)N3CCOCC3)c2)oc2ccccc12	Y
CC(CC(=O)Nc1cc(C(F)(F)F)ccc1Cl)c1ccccc1 (stereo not given)	N
N=c1n(Cc2ccc(Cl)cc2)c2ccccc2n1CC(O)c1ccco1 (stereo not given)	Y
O=c1[nH]c(CN2CCOCC2)nc2cc(Cl)ccc12	N
